- EXPERIMENTAL CONTEXT: 20 °C
MEASURE: log10 solubility (log10 of the value in µM)
On a log10 scale: recorded solubility, unit µM.

Reference set (8 entries):
Clc1cc(Cl)c(-c2c(Cl)cc(Cl)c(Cl)c2Cl)cc1Cl ... -1.91
O=[N+]([O-])c1cc(Cl)c(Cl)c(Cl)c1Cl ... 1.45
CCCCOC(=O)C(C)O (stereo not drawn) ... 5.44
O=C(O)CN(CP(=O)(O)O)CP(=O)(O)O ... 5.97
COc1ccc2c(c1O)[C@]13CCN(C)[C@H](C2)[C@@H]1C=CC(=O)C3 ... 4.13
CC(C)I ... 3.92
c1ccc(C(c2ccccc2)(c2ccccc2)N2CCOCC2)cc1 ... -1.22
O=[N+]([O-])c1c(O)ccc2ccccc12 ... 3.03

log10 solubility measured on COC(=O)C(C)N(C(=O)c1ccco1)c1c(C)cccc1C (stereo not drawn) = 2.88

log10 solubility measured on Clc1cc(Cl)c(-c2cccc(Cl)c2Cl)cc1Cl = -1.06

log10 solubility measured on Cc1ccccc1OCC(O)CO (stereo not drawn) = 4.81

log10 solubility measured on CC(Cl)C(C)Cl (stereo not drawn) = 3.65
